// COUNTERSCREEN Curve Class lookup, one value per entry
Target: GST-CIB1 : F-scrambled peptide (Homo sapiens)
Construct: made in house; host or cells: BL-21 plus RIL cells (E. coli)
Sequence (Q99828 1-191): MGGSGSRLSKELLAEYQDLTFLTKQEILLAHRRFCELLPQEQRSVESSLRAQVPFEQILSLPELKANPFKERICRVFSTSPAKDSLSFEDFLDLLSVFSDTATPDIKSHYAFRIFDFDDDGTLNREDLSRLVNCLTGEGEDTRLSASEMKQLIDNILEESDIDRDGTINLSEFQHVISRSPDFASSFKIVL
Experiment: FP scrambled-peptide counter screen, 1536-well format
Assay type: binding
Conditions: scrambled-peptide counterscreen, qHTS curve class
Write the value as a bare number.

A selection of reference data follows.
{"COMPOUND": "O=[N+]([O-])c1cnc(Sc2nnc(O)n2-c2ccc3c(c2)OCCO3)s1", "ASSAYED_SYSTEM": "GST-CIB1 : F-scrambled peptide (Homo sapiens)", "OBSERVED_RESULT": 4}
{"COMPOUND": "Cl.NC(CO)(CO)CCc1ccc(Sc2cccc(OCc3ccccc3)c2)cc1Cl", "ASSAYED_SYSTEM": "GST-CIB1 : F-scrambled peptide (Homo sapiens)", "OBSERVED_RESULT": 4}
{"COMPOUND": "O=C(Nc1nc(-c2ccccc2)cs1)c1ccncc1NS(=O)(=O)c1cccc2cccnc12.O=C(O)C(F)(F)F", "ASSAYED_SYSTEM": "GST-CIB1 : F-scrambled peptide (Homo sapiens)", "OBSERVED_RESULT": -2.4}

Using the record for CCN(CC)C(=S)SSC(=S)N(CC)CC [NCGC00016000-13, disulfiram, reference compound] , state its measured COUNTERSCREEN Curve Class.
4

Using the record for Cc1ccc(C(=O)Nc2ccc(S(=O)(=O)O)c3cc(S(=O)(=O)O)cc(S(=O)(=O)O)c23)cc1NC(=O)c1cccc(NC(=O)Nc2cccc(C(=O)Nc3cc(C(=O)Nc4ccc(S(=O)(=O)O)c5cc(S(=O)(=O)O)cc(S(=O)(=O)O)c45)ccc3C)c2)c1 , state its measured COUNTERSCREEN Curve Class.
4

Using the record for Cc1ccc(S(=O)(=O)Nc2cc([N+](=O)[O-])ccc2C(=O)Nc2nc(-c3ccccc3)cs2)cc1.O=C(O)C(F)(F)F , state its measured COUNTERSCREEN Curve Class.
4

---

// Curve Class lookup, one value per entry
Target: CIB1 and αIIb interaction (CIB1-GST : F-αIIb peptide) (Homo sapiens)
Construct: made in house; host or cells: BL-21 plus RIL cells (E. coli)
Assay: FP assay, 1536-well qHTS format (primary and confirmatory screen)
Type: binding
Settings: qHTS primary screen hits, Table S2; negative sign = inhibitory curve; several classes where COUNT > 1
Write the value as a bare number.

Using the record for Cc1cc(C)nc(NC(=S)N2CCN(c3cc4ccccc4cn3)CC2)c1.O=C(O)C(F)(F)F [NCGC00244142-01] , state its measured Curve Class.
-2.4

Using the record for CC(=O)NC(c1ccco1)c1cc(Cl)c2ccc(N(C)C)nc2c1O (stereo not drawn) [NCGC00183714-01] , state its measured Curve Class.
-2.2

Using the record for CC(O)C(=O)O.CCOc1ccc2nc3cc(N)ccc3c(N)c2c1.O [NCGC00096056-02] , state its measured Curve Class.
-2.1

Using the record for Nc1ccc2nc3c(=O)n(CCc4ccccc4)c(=O)[nH]c3nc2c1.O=C(O)C(F)(F)F [NCGC00356558-01] , state its measured Curve Class.
-1.2

Using the record for CCC(C)(C)n1nnnc1C(c1cc2ccc(OC)cc2[nH]c1=O)N1CCc2ccccc2C1.O=C(O)C(F)(F)F (stereo not drawn) [NCGC00350929-01] , state its measured Curve Class.
-2.4

Using the record for O=C1NC(c2cccc([N+](=O)[O-])c2)=CCN1c1ccccc1O [NCGC00015571-05] , state its measured Curve Class.
-2.2

---

// Efficacy (%) (counterscreen) lookup, one value per entry
Biological target: GST-CIB1 : F-scrambled peptide (Homo sapiens, UniProt Q99828)
Construct: made in house; host or cells: BL-21 plus RIL cells (E. coli)
Assay: FP scrambled-peptide counter screen, 1536-well format
Format: binding
Conditions: Table S3, counterscreen; negative = inhibition
Just the number in %, nothing appended.

A selection of reference data follows.
{"COMPOUND": "COc1ccc2[nH]c([S+]([O-])Cc3ncc(C)c(OC)c3C)nc2n1 (centres unmarked)", "UNIT_SPEC": "%", "Efficacy (%) (counterscreen)": -72}
{"COMPOUND": "CCCCCCCCCCCCCCCC[N+](C)(C)CCN(Cc1ccc(OC)cc1)c1ncccn1.[Br-]", "UNIT_SPEC": "%", "Efficacy (%) (counterscreen)": 100}

Using the record for O=C(O)C(F)(F)F.O=C1Nc2ccccc2/C1=N/NC(=S)Nc1ccc(Oc2ccccc2)cc1 , state its measured Efficacy (%) (counterscreen).
-38

---

// Efficacy (%) lookup, one value per entry
Target: CIB1 and αIIb interaction (CIB1-GST : F-αIIb peptide) (Homo sapiens)
Construct: made in house; host or cells: BL-21 plus RIL cells (E. coli)
Test: FP assay, 1536-well qHTS format (primary and confirmatory screen)
Assay type: binding
Conditions: qHTS primary screen hits, Table S2; negative = inhibition
State the value with its unit after it.

{"COMPOUND": "O=C(CN1C(=O)N/C(=C\\c2cn(-c3cccc(C(=O)O)c3)cn2)C1=O)Nc1ccc(Cl)cc1 [NCGC00182401-01]", "Efficacy (%)": "-30%"}

Using the record for CN(C)CCCNC(=O)c1ccc(-c2cc(O)c3ncccc3c2)cc1 [NCGC00183808-07] , state its measured Efficacy (%).
-38%

Using the record for CC(=O)NC(c1ccco1)c1cc(Br)c2cccnc2c1O.O=C(O)C(F)(F)F (stereo not drawn) [NCGC00183684-06] , state its measured Efficacy (%).
-40%

Using the record for Cc1ccc(N)cc1O [NCGC00090702-02] , state its measured Efficacy (%).
-38%

Using the record for CO[C@H](C(=O)[C@@H](O)[C@@H](C)O)[C@@H]1Cc2cc3cc(C[C@H]4C[C@H](O[C@H]5C[C@@H](O)[C@H](O)[C@@H](C)O5)[C@@H](O)[C@@H](C)O4)c(C)c(O)c3c(O)c2C(=O)[C@H]1O[C@@H]1C[C@H](O[C@@H]2C[C@H](O[C@@H]3C[C@](O)(CO)[C@@H](O)[C@H](C)O3)[C@@H](O)[C@H](C)O2)[C@@H](O)[C@H](C)O1 [NCGC00162423-04] , state its measured Efficacy (%).
-51%

Using the record for C[N+](C)(C)CC(=O)O.[Cl-] [NCGC00015150-04] , state its measured Efficacy (%).
-24%

Using the record for CO/N=C(/C(=O)N[C@@H]1C(=O)N2C(C(=O)[O-])=C(C[n+]3ccn4ncccc43)CS[C@H]12)c1nsc(N)n1 [NCGC00181750-01] , state its measured Efficacy (%).
-60%

Using the record for O=C(O)C(F)(F)F.O=S(=O)(Nc1ccc(O)c2ncccc12)c1ccccc1F [NCGC00184887-02] , state its measured Efficacy (%).
-48%

Using the record for CC1=C(C(=O)Nc2ccc(C(=O)O)cc2)C(c2ccccc2Cl)N=C(Nc2nc3ccccc3o2)N1.O=C(O)C(F)(F)F (stereo not drawn) [NCGC00351025-01] , state its measured Efficacy (%).
-29%

Using the record for O=C(Nc1ccc(Oc2ccc(Cl)cc2)c(Cl)c1)c1cc(I)cc(I)c1O [NCGC00160556-02] , state its measured Efficacy (%).
-27%

Using the record for O=C(O)c1csc(-n2cc(Cc3ccc(CO)cc3)c(-c3cccc(-c4ccccc4)c3)n2)n1 [NCGC00371885-01] , state its measured Efficacy (%).
-35%

Using the record for CC1OC2OC(=O)C3(C)CC4C5(CO5)C5=CC(=O)OC(C)(C)C5=CC(=O)C4(C)C(C1=O)C23 (stereo not drawn) [NCGC00380663-01] , state its measured Efficacy (%).
-57%

Using the record for Cc1ccc(S(=O)(=O)Nc2cnccc2C(=O)Nc2nc(-c3ccc(C)c(C)c3)cs2)cc1.O=C(O)C(F)(F)F [NCGC00318954-01] , state its measured Efficacy (%).
-61%

---

Target: CIB1 and αIIb interaction (CIB1-GST : F-αIIb peptide) (Homo sapiens, UniProt Q99828)
Construct: made in house; host or cells: BL-21 plus RIL cells (E. coli)
Experiment: FP assay, 1536-well qHTS format (primary and confirmatory screen)
Assay type: binding
Conditions: qHTS primary screen hits, Table S2; negative sign = inhibitory curve; several classes where COUNT > 1
QUANTITY_MEASURED: Curve Class
Write the value as a bare number.

A selection of reference data follows.
{"MOLECULAR_STRING": "Oc1c(I)cc(Cl)c2cccnc12", "Curve Class": -2.4}
{"MOLECULAR_STRING": "O=C(O)C(F)(F)F.O=C1Nc2ccccc2/C1=N/NC(=S)Nc1c(F)cc(F)cc1F", "Curve Class": -1.4}
{"MOLECULAR_STRING": "CCOc1ccc(CCNC(=O)c2ccc(N3N=C(C)CC3=O)cc2)cc1OCC.O=C(O)C(F)(F)F", "Curve Class": -1.2}

Using the record for Cn1ccc(=Nc2ccc(NC(=O)c3ccc(/N=c4\ccn(C)c5ccc([N+](=O)[O-])cc45)cc3[N+](=O)[O-])cc2)cc1.O=C(O)C(F)(F)F , state its measured Curve Class.
-2.2

Using the record for Cc1cc(C)nc(NC(=S)N2CCN(c3ccc4nsnc4c3)CC2)c1.O=C(O)C(F)(F)F , state its measured Curve Class.
-2.1

Using the record for NS(=O)(=O)c1ccc(Cc2cn(-c3nc(C(=O)O)cs3)c3ncccc23)cc1 , state its measured Curve Class.
-2.2

Using the record for CN(CC(=O)Nc1ccc(N2CCOCC2)cc1)Cc1c(O)ccc2ccccc12.O=C(O)C(F)(F)F , state its measured Curve Class.
-2.2
